Recorded values, source paper PMC9178925.

Molecular target: α1β2γ2L GABAAR (Rattus norvegicus, UniProt P62813+P63138)
Sequence (P62813 28-455): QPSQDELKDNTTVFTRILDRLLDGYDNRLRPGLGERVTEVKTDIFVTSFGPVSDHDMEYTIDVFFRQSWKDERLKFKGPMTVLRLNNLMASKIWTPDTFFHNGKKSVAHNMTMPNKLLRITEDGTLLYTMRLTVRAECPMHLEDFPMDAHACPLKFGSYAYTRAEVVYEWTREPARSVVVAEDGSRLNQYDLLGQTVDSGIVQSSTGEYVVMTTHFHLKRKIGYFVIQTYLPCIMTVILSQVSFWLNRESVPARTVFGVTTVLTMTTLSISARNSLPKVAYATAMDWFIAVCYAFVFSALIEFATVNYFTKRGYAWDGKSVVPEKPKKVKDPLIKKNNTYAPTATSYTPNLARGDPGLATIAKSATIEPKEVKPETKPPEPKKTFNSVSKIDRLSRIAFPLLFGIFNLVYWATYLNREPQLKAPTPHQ
Sequence (P63138 25-474 limits assumed): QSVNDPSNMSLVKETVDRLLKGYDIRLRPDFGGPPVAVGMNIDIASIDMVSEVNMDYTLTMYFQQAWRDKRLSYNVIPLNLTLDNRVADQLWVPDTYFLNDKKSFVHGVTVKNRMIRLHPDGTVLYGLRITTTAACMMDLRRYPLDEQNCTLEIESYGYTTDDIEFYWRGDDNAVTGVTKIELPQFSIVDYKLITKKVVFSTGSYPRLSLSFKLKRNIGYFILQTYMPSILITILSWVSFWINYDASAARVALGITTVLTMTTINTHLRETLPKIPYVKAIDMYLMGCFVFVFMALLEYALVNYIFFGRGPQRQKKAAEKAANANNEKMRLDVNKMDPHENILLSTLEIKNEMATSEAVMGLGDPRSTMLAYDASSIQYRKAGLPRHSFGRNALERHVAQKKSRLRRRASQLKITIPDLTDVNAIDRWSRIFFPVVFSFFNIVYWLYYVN
Experiment: Two-electrode voltage clamp, concentration-response and mechanistic
Type: cell-based, rat (β2 rat or human)
measurement-kind: Kd (µM)
Field format: number, assumed µM, no unit text.

Fill blank: measured Kd of the compound Cl/C(=C\n1cncn1)c1ccc(Cl)cc1Cl [loreclezole, reference compound] is ____. 7.1

* * *

Biological target: α1β2(K279A+D282A)γ2L GABAAR (Rattus norvegicus, UniProt P62813+P63138, D306A/K303A)
Conditions: β2(K279A+D282A); pooled data; Hill equation fit
measurement-kind: EC50 (µM)
Field format: number, assumed µM, no unit text.

Checklist item: EC50 tested on α1β2(K279A+D282A)γ2L GABAAR (Rattus norvegicus, UniProt P62813+P63138, D306A/K303A), entry CCC1=C[C@@H]2CN3CCc4c([nH]c5ccccc45)[C@@](C(=O)OC)(C2)[C@@H]13 [(+)-catharanthine, (+)-3,4-didehydrocoronaridine] , value? 15.8
